In this section we review reported log10(IC50) values for a set of sequences.
target: HLA-A*02:01; test: IEDB peptide-MHC binding, purified MHC/competitive/radioactivity; bounds were set here for any values at or beyond the usual limits of such assays; details: source organism: Mammarenavirus brazilense
property.label: log10(IC50) (log10 of the value in nM)

INSERT INTO assay_data (monomer_sequence, value_observed) VALUES
  ('QLFSFFEEV', 1.08),
  ('GLLEWIFRA', 0.08),
  ('GLLEWIFRAL', 2.64),
  ('FQLIFFLTLA', 2.36),
  ('NLSNCVHPAV', 2.18);

----------
molecular target: HLA-A*68:02; assay: IEDB peptide-MHC binding, purified MHC/competitive/radioactivity; bounds were set here for any values at or beyond the usual limits of such assays; conditions: source organism: Hepatitis B virus
In this section we review reported IC50 values for a set of sequences.
property.label: IC50 (nM)

INSERT INTO results (monomer_sequence, value_observed) VALUES
  ('FLPSDFFPSV', 28),
  ('LVPFVQWFV', 19),
  ('FLAPLPIHTA', 971),
  ('LLVPFVQWFV', 68),
  ('WMMWYWGPSL', 3590),
  ('FLFILLLCLI', 4500),
  ('LLDYQGMLPV', 626),
  ('FIIFLFILLL', 737),
  ('FLFILLLCL', 1200);
